# PROTOCOL_SUMMARY: Inhibition of Bos taurus (bovine) heart cAMP-dependent phosphodiesterase assessed as inhibition of cyclic AMP to 5' AMP after 20 min by spectrophotometry
Reported values of IC50 for individual entries

STRUCTURE: CCOc1ccc2nc(-n3c(-c4ccccc4)nc4ccccc4c3=O)sc2c1
UNIT_OF_MEASURE: µM
IC50: 2430

STRUCTURE: COc1cccc2sc(-n3c(-c4ccccc4)nc4c(Br)cc(Br)cc4c3=O)nc12
UNIT_OF_MEASURE: µM
IC50: 2070

STRUCTURE: COc1cccc2sc(-n3c(-c4ccccc4)nc4ccccc4c3=O)nc12
UNIT_OF_MEASURE: µM
IC50: 2320

STRUCTURE: COc1ccc2nc(-n3c(-c4ccccc4)nc4c(Br)cc(Br)cc4c3=O)sc2c1
UNIT_OF_MEASURE: µM
IC50: 2120

STRUCTURE: Cc1cccc2sc(-n3c(-c4ccccc4)nc4c(Br)cc(Br)cc4c3=O)nc12
UNIT_OF_MEASURE: µM
IC50: 2030

STRUCTURE: CCOc1ccc2sc(-n3c(-c4ccccc4)nc4ccccc4c3=O)nc2c1
UNIT_OF_MEASURE: µM
IC50: 2490

STRUCTURE: O=c1c2ccccc2nc(-c2ccccc2)n1-c1nc2ccc(Br)cc2s1
UNIT_OF_MEASURE: µM
IC50: 2130

STRUCTURE: COc1ccc2sc(-n3c(-c4ccccc4)nc4c(Br)cc(Br)cc4c3=O)nc2c1
UNIT_OF_MEASURE: µM
IC50: 2090

STRUCTURE: O=c1c2cc(Br)cc(Br)c2nc(-c2ccccc2)n1-c1nc2cc(Cl)ccc2s1
UNIT_OF_MEASURE: µM
IC50: 1440

STRUCTURE: COc1ccc2nc(-n3c(-c4ccccc4)nc4ccccc4c3=O)sc2c1
UNIT_OF_MEASURE: µM
IC50: 2420

STRUCTURE: COc1ccc2sc(-n3c(-c4ccccc4)nc4ccccc4c3=O)nc2c1
UNIT_OF_MEASURE: µM
IC50: 2330

STRUCTURE: O=c1c2ccccc2nc(-c2ccccc2)n1-c1nc2ccccc2s1
UNIT_OF_MEASURE: µM
IC50: 2100

STRUCTURE: O=c1c2ccccc2nc(-c2ccccc2)n1-c1nc2ccc([N+](=O)[O-])cc2s1
UNIT_OF_MEASURE: µM
IC50: 2640

These measurements were taken from BindingDB's records for doi:10.1007/s00044-008-9125-0.
